Molecular target: T1, Ebola virus GP with a C-terminal polyhistidine tag (Sino Biologicals, Catalog #40442-V08B1) (Ebola virus, UniProt P87666 33-650)
T1 construct: also called EbolaGP.his; Ebola virus GP.his
Test: SPR 37C, mAb captured

| BINDER | kon |
| --- | --- |
| H1H17214P (antibody, V domains shown) VH: EVQLVESGGGLVQPGGSLRLSCAASKFTFDTFAMSWVRQAPGKGLEWVSFISSSGGRTDYVDSVKGRFTISRDNSKNTLYLQMNSLRAEDTAVYYCAKERTIFGVLILGPDNYGMDVWGQGTTVTVSS VL: DIQMTQSPSSLSAFVGDRVTITCRASQSISTYLNWYQQKPGKAPKLLIYAASSLQSGVSSRFSGSGSGTDFTLTISSLQPEDFATYYCQQSYSAPPITFGQGTRLEIK | 36700 M⁻¹ s⁻¹ |
| H1H17162P (antibody, V domains shown) VH: EVQLVESGGGLVQPGGSLRLSCAASEFTFSSYAMSWVRQAPGKGLEWVSAISGSSGSTYYADSVKGRFTISRDNSKKTLYLQMNSLRVEDTAVYYCAKGGYPHSFDIWGHGTMVTVSS VL: DIQMTQSPSSLSASVGDRVTITCRASQSISSFLNWYQQKPGKAPKLLIYAASSLQSGVPSRFSGSGSGTDFTLTISSLQPEDFATYYCQQSYSSITFGQGTRLEIK | 34700 M⁻¹ s⁻¹ |

// provenance: patent US20160215040A1
